Readings of Papp at 5 h, 500 µM for the listed compounds
- Assay Remarks: physchem
- Condition Summary: PAMPA
- Description: Apparent permeability at 500 uM after 5 hrs by Blood-Brain Barrier-based PAMPA
Please report the result as a number followed by the unit.

Worked set:
CCC(CN1CCN(C)CC1)OC(=O)N(c1cccc(Br)c1)c1nc(SC)nc2c1cnn2CC(C)c1ccccc1 (centres undefined): 0.93 ×10⁻⁶ cm/s
CSc1nc(N(C(=O)OCCN2CCN(C)CC2)c2cccc(Cl)c2)c2cnn(CC(Cl)c3ccccc3)c2n1 (centres undefined): 4.14 ×10⁻⁶ cm/s
CSc1nc(N(CCc2ccccc2)C(=O)OCCN2CCN(C)CC2)c2cnn(CC(Cl)c3ccccc3)c2n1 (centres undefined): 0.01 ×10⁻⁶ cm/s

stdin: Name the reported Papp at 5 h, 500 µM value associated with the compound CN1CCN(CCOC(=O)N(Cc2ccccc2Cl)c2ncnc3c2cnn3CC(Cl)c2ccc(Br)cc2)CC1 (centres undefined)
stdout: 1.92 ×10⁻⁶ cm/s

stdin: Name the reported Papp at 5 h, 500 µM value associated with the compound CCCCNc1nc(SCC)nc2c1cnn2CC(Cl)c1ccccc1 (centres undefined)
stdout: 9.99 ×10⁻⁶ cm/s
